# Measurement target: recombinant JAK2 (amino acids 831-1132) (Homo sapiens (Human), UniProt O60674)
# Sequence (O60674 831-1132): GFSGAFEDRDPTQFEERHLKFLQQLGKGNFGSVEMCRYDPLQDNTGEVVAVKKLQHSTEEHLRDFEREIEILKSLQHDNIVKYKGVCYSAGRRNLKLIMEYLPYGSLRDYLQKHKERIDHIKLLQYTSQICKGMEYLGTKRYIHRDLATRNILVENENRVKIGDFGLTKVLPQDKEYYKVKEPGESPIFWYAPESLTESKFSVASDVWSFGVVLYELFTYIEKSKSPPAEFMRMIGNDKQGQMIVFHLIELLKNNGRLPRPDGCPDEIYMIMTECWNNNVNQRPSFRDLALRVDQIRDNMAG
# Experimental details: Enzyme inhibition studies, JAK2 (5 mM ATP, Caliper)
Readout kind: IC50 (µM)
Answer format: numeric, µM implied, no suffix.

Query: What value of IC50 has been recorded for this entry: CC[C@H](C(=O)Nc1cccc2c(-c3nc(Nc4cccc(S(C)(=O)=O)c4F)ncc3F)c[nH]c12)N1CCN(C)CC1
Reply: 6.87

Query: What value of IC50 has been recorded for this entry: Cc1cnc(Nc2cccc(S(C)(=O)=O)c2F)nc1-c1c[nH]c2c(NC(=O)[C@@H](COCc3ccccc3)N3CCN(C)CC3)cccc12
Reply: 0.91

Query: What value of IC50 has been recorded for this entry: Cc1cnc(Nc2cccc(S(C)(=O)=O)c2F)nc1-c1c[nH]c2c(NC(=O)[C@@H](C)N3CCN(C)C[C@H]3C)cccc12
Reply: 8.23

---

# Measurement target: recombinant JAK2 (amino acids 831-1132) (Homo sapiens (Human))
# Experimental details: Enzyme inhibition studies, JAK2 (5 mM ATP, Caliper)
I'd appreciate it if you could supply IC50 values for the items below.
Answer format: numeric, µM implied, no suffix.

Query: What value of IC50 has been recorded for this entry: CC[C@H](C(=O)Nc1cccc2c(-c3nc(Nc4cccc(S(C)(=O)=O)c4F)ncc3C)c[nH]c12)N1CCN(C)CC1C (stereo in doubt) [Example 51]
Reply: 0.612

Query: What value of IC50 has been recorded for this entry: CC[C@H](C(=O)Nc1cccc2c(-c3nc(Nc4cccc(S(C)(=O)=O)c4F)ncc3C)c[nH]c12)N1CCCN(C)CC1 [Example 37]
Reply: 0.968

Query: What value of IC50 has been recorded for this entry: CC[C@H](C(=O)Nc1cccc2c(-c3nc(Nc4cccc(S(C)(=O)=O)c4F)ncc3F)c[nH]c12)N1CCN(C)CC1C (stereo in doubt) [Example 53]
Reply: 2.08

Query: What value of IC50 has been recorded for this entry: Cc1cnc(Nc2cccc(S(=O)(=O)C3CC3)c2F)nc1-c1c[nH]c2c(NC(=O)[C@@H](C)N3CCN(C)CC3)cccc12 [Example 4]
Reply: 1.6

Query: What value of IC50 has been recorded for this entry: COC[C@H](C(=O)Nc1cccc2c(-c3nc(Nc4cccc(S(C)(=O)=O)c4F)ncc3F)c[nH]c12)N1C[C@H](C)N(C)[C@@H](C)C1 [Example 41]
Reply: 4.82

Query: What value of IC50 has been recorded for this entry: Cc1cnc(Nc2cccc(S(C)(=O)=O)c2F)nc1-c1c[nH]c2c(NC(=O)[C@@H](C)N3CCN(C)C[C@@H]3C)cccc12 [Example 58]
Reply: 25.3

Query: What value of IC50 has been recorded for this entry: C[C@H](C(=O)Nc1cccc2c(-c3nc(Nc4cccc(S(C)(=O)=O)c4F)ncc3F)c[nH]c12)N1C[C@H](C)N[C@@H](C)C1 [Example 11]
Reply: 11.1

Query: What value of IC50 has been recorded for this entry: COC[C@H](C(=O)Nc1cccc2c(-c3nc(Nc4cccc(S(C)(=O)=O)c4F)ncc3C)c[nH]c12)N1CCN(C)C[C@H]1C [Example 55]
Reply: 0.293

---

# Measurement target: recombinant JAK1 (amino acids 866-1154) (Homo sapiens (Human))
# Sequence (P23458 866-1154): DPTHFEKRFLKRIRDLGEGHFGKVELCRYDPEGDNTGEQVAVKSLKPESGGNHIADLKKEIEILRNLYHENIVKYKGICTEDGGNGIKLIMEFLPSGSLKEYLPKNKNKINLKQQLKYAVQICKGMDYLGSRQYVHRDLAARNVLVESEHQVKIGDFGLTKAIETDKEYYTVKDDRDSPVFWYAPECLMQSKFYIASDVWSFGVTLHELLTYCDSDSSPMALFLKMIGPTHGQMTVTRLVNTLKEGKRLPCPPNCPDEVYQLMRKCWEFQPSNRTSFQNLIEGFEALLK
# Experimental details: Enzyme inhibition studies, JAK1 (5 mM ATP, Caliper)
Readout kind: IC50 (nM)
Answer format: numeric, nM implied, no suffix.

Query: What value of IC50 has been recorded for this entry: C[C@H](C(=O)Nc1cccc2c(-c3nc(Nc4cccc(S(C)(=O)=O)c4F)ncc3F)c[nH]c12)N1C[C@H](C)N(C)[C@@H](C)C1 [Example 8]
Reply: 24.5

Query: What value of IC50 has been recorded for this entry: COC[C@@H](C(=O)Nc1cccc2c(-c3nc(Nc4cccc(S(C)(=O)=O)c4F)ncc3C)c[nH]c12)N1C[C@H](C)N(C)[C@@H](C)C1 [Example 21]
Reply: 986

Query: What value of IC50 has been recorded for this entry: CC[C@@H](C(=O)Nc1cccc2c(-c3nc(Nc4cccc(S(C)(=O)=O)c4F)ncc3F)c[nH]c12)N1CCN(C)CC1C (stereo in doubt) [Example 52]
Reply: 348

Query: What value of IC50 has been recorded for this entry: CC[C@@H](C(=O)Nc1cccc2c(-c3nc(Nc4cccc(S(C)(=O)=O)c4F)ncc3F)c[nH]c12)N1CCN(C)CC1 [Example 39]
Reply: 256

Query: What value of IC50 has been recorded for this entry: C[C@H]1CN([C@@H](C)C(=O)Nc2cccc3c(-c4nc(Nc5cccc(S(C)(=O)=O)c5F)ncc4F)c[nH]c23)C[C@H](C)N1 [Example 12]
Reply: 1130

Query: What value of IC50 has been recorded for this entry: COC[C@@H](C(=O)Nc1cccc2c(-c3nc(Nc4cccc(S(C)(=O)=O)c4F)ncc3C)c[nH]c12)N1CCN(C)C[C@H]1C [Example 54]
Reply: 14

Query: What value of IC50 has been recorded for this entry: Cc1cnc(Nc2cccc(S(C)(=O)=O)c2F)nc1-c1c[nH]c2c(NC(=O)[C@H](C)N3CCN(C)C[C@H]3C)cccc12 [Example 47]
Reply: 180

Source listed as patent US10961228B2.
